test-description: Clinical multiple-dose pharmacokinetics of elagolix in healthy subjects
Type: in vivo, human
test-context: human, plasma, oral, 150 mg
quantity: half-life (h)
Quick note: give the figure in h, leave out the unit.

Query: Reported half-life for "COc1cccc(-c2c(C)n(Cc3c(F)cccc3C(F)(F)F)c(=O)n(C[C@H](NCCCC(=O)O)c3ccccc3)c2=O)c1F" : what is it?
Result: 6.42
